- Test system: Methicillin resistant Staphylococus aureus 653SP
- experimental-protocol: MIC by microbroth dilution, first column headed SA (guide: MRSA)
- Assay type: cell-based, Staphylococcus aureus
- condition-summary: Staphylococcus aureus; SA; Mueller Hinton Broth, 37° C., 16-18 hrs; read-out: MIC (μg/ml) in vitro activity in gram positive organisms, SA
parameter-measured: MIC
Include the unit after the number when you answer.

Field: example entries. Status: answers known.
| compound | MIC |
| --- | --- |
| CC(=S)NC[C@H]1CN(c2ccc(N3CCN(C(=O)C=Cc4ccco4)CC3)c(F)c2)C(=O)O1 [Compound 66] | 1 µg/mL |
| NC(=S)NC[C@H]1CN(c2ccc(N3CCN(C(=O)C=Cc4ccco4)CC3)c(F)c2)C(=O)O1 [Compound 127] | 2 µg/mL |
| NC(=S)NC[C@H]1CN(c2ccc(N3CCN(C(=O)C=Cc4c[nH]c5ccccc45)CC3)c(F)c2)C(=O)O1 [Compound 126] | 1 µg/mL |
| CC(=O)NC[C@H]1CN(c2ccc(N3CCN(C(=O)/C=C/c4cccs4)CC3)c(F)c2)C(=O)O1 [Compound 01] | 0.5 µg/mL |

Recorded MIC (compound NC(=S)NC[C@H]1CN(c2ccc(N3CCN(C(=O)/C=C/c4cccs4)CC3)c(F)c2)C(=O)O1 [Compound 123] ): 1 µg/mL

Recorded MIC (compound CC(=S)NC[C@H]1CN(c2ccc(N3CCN(C(=O)C=Cc4cccs4)CC3)c(F)c2)C(=O)O1 [Compound 70] ): 1 µg/mL

Recorded MIC (compound CC(=O)NC[C@H]1CN(c2ccc(N3CCOCC3)c(F)c2)C(=O)O1 [Linezolid, reference compound] ): 2 µg/mL

Reference source: patent US20060229316A1
